tested-system: Somatostatin receptor type 4 (Rattus norvegicus, UniProt P30937)
Sequence (P30937 whole entry): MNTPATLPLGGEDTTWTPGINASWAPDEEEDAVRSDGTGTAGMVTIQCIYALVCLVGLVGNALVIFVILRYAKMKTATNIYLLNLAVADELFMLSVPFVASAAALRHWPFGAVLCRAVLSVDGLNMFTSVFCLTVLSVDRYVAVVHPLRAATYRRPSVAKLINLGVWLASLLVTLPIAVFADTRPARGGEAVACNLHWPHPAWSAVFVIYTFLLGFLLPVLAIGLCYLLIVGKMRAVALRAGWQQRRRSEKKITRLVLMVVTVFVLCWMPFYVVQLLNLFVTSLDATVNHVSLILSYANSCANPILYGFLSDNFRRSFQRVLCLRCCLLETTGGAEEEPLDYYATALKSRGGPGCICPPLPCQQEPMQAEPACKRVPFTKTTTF
Where a SMILES comes first, the peptide text is derived from it. Bridges are numbered along the chain shown (N, C = ends). [ ]: non-standard residue; d: D form. Phe(4-Cl) = N[C@@H](Cc1ccc(Cl)cc1)C(=O)O; 2Nal = N[C@@H](Cc1ccc2ccccc2c1)C(=O)O; d2Nal = N[C@H](Cc1ccc2ccccc2c1)C(=O)O; Abu = CC[C@H](N)C(=O)O
Kindly supply the reported pKi values for the records listed here.
Answers are plain numbers, as −log10 of the molar value.

Record excerpt, results attached:
- compound: "CC[C@@H]1NC(=O)[C@H](CCCCN)NC(=O)[C@@H](Cc2c[nH]c3ccccc23)NC(=O)[C@H](Cc2ccc(O)cc2)NC(=O)[C@@H](NC(=O)[C@H](N)Cc2ccccc2)CSSC[C@@H](C(=O)N[C@@H](Cc2ccc3ccccc3c2)C(N)=O)NC1=O [D-Phe-Cys-Tyr-D-Trp-Lys-Abu-Cys-Nal-NH] (H-[dF]CY[dW]K[Abu]C[2Nal]-NH2; disulfide 2-7)"
  tested-system: "Somatostatin receptor type 4 (Rattus norvegicus, UniProt P30937)"
  pKi: 8.22
- compound: "C[C@@H](O)[C@H](NC(=O)[C@H](Cc1ccccc1)NC(=O)[C@@H](NC(=O)[C@H](CCCCN)NC(=O)[C@@H](Cc1c[nH]c2ccccc12)NC(=O)[C@H](Cc1ccc(O)cc1)NC(=O)[C@H](Cc1ccc(Cl)cc1)NC(=O)[C@H](N)Cc1ccc2ccccc2c1)[C@@H](C)O)C(N)=O [CAS_150155-63-8] (H-[d2Nal][Phe(4-Cl)]Y[dW]KTFT-NH2)"
  tested-system: "Somatostatin receptor type 4 (Rattus norvegicus, UniProt P30937)"
  pKi: 8.02

Next item in the queue.
[in] Form entry - test system: Somatostatin receptor type 4 (Rattus norvegicus, UniProt P30937); read-out: pKi; compound: CC(C)[C@H](NC(=O)[C@H](CCCCN)NC(=O)[C@@H](Cc1c[nH]c2ccccc12)NC(=O)[C@H](Cc1ccc(O)cc1)NC(=O)[C@H](C)NC(=O)[C@H](N)Cc1ccccc1)C(=O)N[C@@H](C)C(=O)N[C@H](Cc1ccc2ccccc2c1)C(N)=O (H-[dF]AY[dW]KVA[d2Nal]-NH2)
[out] 8.23
